Value source: ChEMBL document CHEMBL5058564

Tested on: Fibroblast
Assay: Incucyte cell viability with human fibroblast; also: unitless GR value; below 1 slowed growth and below 0 cell loss
Assay type: toxicity, cell-based
Conditions: 18 h, 10 µM, compound concentration 10 uM, replicate number 2, timepoint 18 hours
Where a SMILES comes first, the peptide text is derived from it. [ ]: non-standard residue; d: D form.
PROPERTY: Growth Rate

# COMPOUND, PROPERTY, ASSAY_RESULT
data = [
    ("CC#C[C@@H](CC(=O)O)c1ccc(OCc2cccc(-c3ccc(C(F)(F)F)cc3)c2)cc1", "Growth Rate", 0.02),
    ("CC(C)C[C@@H]1NC(=O)[C@@H](C(C)C)NC(=O)[C@@H]2CCCN2C(=O)[C@@H](CC(=O)O)NC(=O)[C@@H](Cc2c[nH]c3ccccc23)NC1=O [BQ-123] (cyclo(L[dW][dD]P[dV]))", "Growth Rate", 0.94),
    ("COC1(C[S@@+]([O-])c2ccccc2)CCN(CCc2c[nH]c3ccc(F)cc23)CC1", "Growth Rate", 0.53),
    ("CC(F)(F)CN1CCOc2c(nn(-c3ccccc3Cl)c2-c2ccc(Cl)cc2)C1=O", "Growth Rate", 0.75),
    ("COc1ccc(S(=O)(=O)N2C(=O)[C@@](c3ccccc3OC)(N3C[C@H](O)C[C@H]3C(=O)N(C)C)c3cc(Cl)ccc32)c(OC)c1", "Growth Rate", 0.45),
    ("C[C@H](N)Cn1ccc2cc(F)c(Cl)cc21.O=C(O)/C=C/C(=O)O", "Growth Rate", 0.9),
    ("COC[C@@H](c1ccc(C(F)(F)F)cc1)N1CCN(C2(C)CCN(C(=O)c3c(C)ncnc3C)CC2)C[C@@H]1C.O=C(O)/C=C\\C(=O)O [VICRIVIROC MALEATE]", "Growth Rate", 0.79),
    ("CN(C)C/C=C/C(=O)Nc1ccc(C(=O)N2CCCC(Nc3ncc(Cl)c(-c4c[nH]c5ccccc45)n3)C2)cc1 (stereo unspecified)", "Growth Rate", -0.1),
    ("CCCCCCCCc1ccc(CC[C@](N)(CO)COP(=O)(O)O)cc1", "Growth Rate", 0.85),
    ("O=C(c1cc(C2CC2)on1)N(C1CCCCC1)C1CCCCC1", "Growth Rate", 0.86),
    ("CC(=O)O[C@H]1C(=O)[C@@]2(C)[C@H]([C@H](OC(=O)c3ccccc3)[C@]3(O)C[C@H](OC(=O)[C@H](O)[C@@H](NC(=O)c4ccccc4)c4ccccc4)C(C)=C1C3(C)C)[C@]1(OC(C)=O)CO[C@@H]1C[C@@H]2O", "Growth Rate", 0.02),
    ("Brc1c(N=C2NCCN2)ccc2nccnc12.O=C(O)C(O)C(O)C(=O)O", "Growth Rate", 0.83),
    ("NCCc1cn(S(=O)(=O)c2c(Cl)nc3sccn23)c2ccccc12.O=C(O)C(=O)O", "Growth Rate", -0.42),
    ("Cc1cc(Nc2ncc(Cl)c(Nc3ccccc3S(=O)(=O)C(C)C)n2)c(OC(C)C)cc1C1CCNCC1", "Growth Rate", -0.6),
    ("CSCC[C@H](NC=O)C(=O)N[C@@H](CC(C)C)C(=O)N[C@@H](Cc1ccccc1)C(=O)O", "Growth Rate", 0.69),
    ("Cc1nnc2n1-c1sc(CCC(=O)N3CCOCC3)cc1C(c1ccccc1Cl)=NC2", "Growth Rate", 0.73),
]
